The measurements presented in this section are drawn from ChEMBL document CHEMBL4513216.

Each item that follows carries a reported cytotoxicity at 10 µM.
- ASSAY DETAILS: Toxicity liver stage against HepG2, at 10uM
- Assay type: cell-based
- Design: test concentration 10 uM, cell line HepG2-A16-CD81EGFP
- MEASUREMENT CONTEXT: human, HepG2-A16-CD81EGFP cells; read-out: INHIBITION
Give the value in % but do not write % after it.

Solved cases below.
MOLECULE | UNITS TEXT | cytotoxicity at 10 µM
CCOc1ccc(NC(=O)c2scnc2CC)cc1CO | % | -9.48
CC(O)CN1CCC(CN(C)Cc2ccc(C(N)=O)cc2)CC1 (stereo unspecified) | % | -1.66
Cc1cc(CC(C)Nc2ncc(C)c(N(C)C)n2)[nH]n1 (stereo unspecified) | % | -7.85
Cc1noc(C)c1CN(C)Cc1csc(-c2ncccn2)n1 | % | 16.5
CC(C(=O)N1CCCN(c2ncccc2C#N)CC1)n1cccn1 (stereo unspecified) | % | -4.3

# next molecule below
Please fill in: cytotoxicity at 10 µM reported for COc1ncccc1CNC(=O)NC1CCCOc2ccccc21 (stereo unspecified) = -6.14
